Below, each entry is listed with its recorded TIME.
molecular target: Voltage-gated potassium channel KCNC2 (Homo sapiens) (UniProt Q96PR1); assay: Modulation activity at human recombinant Kv3.2 expressed in CHOK1 cells assessed as potentiation of whole-cell currents by measuring activation time at 3.1 uM at -70 mV holding potential incubated for 3 mins by lonWorks Quattro system based electrophysiology assay (reference value: 7.1 ms)
Sequence (Q96PR1 whole entry): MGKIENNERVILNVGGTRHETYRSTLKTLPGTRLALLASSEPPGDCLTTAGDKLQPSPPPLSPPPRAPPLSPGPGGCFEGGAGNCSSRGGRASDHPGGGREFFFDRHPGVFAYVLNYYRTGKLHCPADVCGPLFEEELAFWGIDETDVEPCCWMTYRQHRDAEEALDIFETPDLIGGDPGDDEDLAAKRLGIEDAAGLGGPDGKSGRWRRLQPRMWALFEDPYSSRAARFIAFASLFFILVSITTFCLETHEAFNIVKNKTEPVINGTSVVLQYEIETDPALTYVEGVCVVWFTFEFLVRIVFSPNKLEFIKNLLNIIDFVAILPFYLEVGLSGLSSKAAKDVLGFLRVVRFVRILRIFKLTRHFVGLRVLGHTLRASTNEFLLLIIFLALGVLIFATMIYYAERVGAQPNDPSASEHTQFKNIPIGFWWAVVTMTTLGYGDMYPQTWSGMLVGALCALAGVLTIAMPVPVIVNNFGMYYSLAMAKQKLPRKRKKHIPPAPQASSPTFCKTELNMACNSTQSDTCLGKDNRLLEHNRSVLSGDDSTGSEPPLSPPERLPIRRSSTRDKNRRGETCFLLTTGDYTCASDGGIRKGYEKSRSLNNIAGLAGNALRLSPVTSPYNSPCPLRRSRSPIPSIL

{"testSmiles": "CC[C@H]1NC(=O)N(c2ccc(Oc3ccc(C#N)cc3C3CC3)nc2)C1=O", "target": "Voltage-gated potassium channel KCNC2 (Homo sapiens) (UniProt Q96PR1)", "TIME, h": "3.61e-06"}
{"testSmiles": "CCc1cc(Oc2ccc(N3C(=O)N[C@H](CC)C3=O)cn2)ccc1C#N", "target": "Voltage-gated potassium channel KCNC2 (Homo sapiens) (UniProt Q96PR1)", "TIME, h": "2.28e-06"}
{"testSmiles": "CC[C@H]1NC(=O)N(c2ccc(Oc3ccc(C#N)c(OC(F)(F)F)c3)nc2)C1=O", "target": "Voltage-gated potassium channel KCNC2 (Homo sapiens) (UniProt Q96PR1)", "TIME, h": "2.89e-06"}
{"testSmiles": "CC[C@H]1NC(=O)N(c2ccc(Oc3ccc(C#N)c(C4CC4)c3)nc2)C1=O", "target": "Voltage-gated potassium channel KCNC2 (Homo sapiens) (UniProt Q96PR1)", "TIME, h": "2.11e-06"}
{"testSmiles": "CC[C@H]1NC(=O)N(c2ccc(Oc3ccc(C#N)c(OC(C)C)c3)nc2)C1=O", "target": "Voltage-gated potassium channel KCNC2 (Homo sapiens) (UniProt Q96PR1)", "TIME, h": "2.69e-06"}
